- Test system: DMS-114
- run description: NCI tumour cell line growth inhibition, 48 h
Active and inactive are the calls of the source. No stated cut-off is given here; in the data, active = GI50 up to about 1.1 µM and inactive = higher.
I would appreciate it if you answered using one of these outcomes: active, inactive

N=S(c1ccccc1)c1ccccc1[N+](=O)[O-] (stereo not given)	inactive
OCCOc1ccc(-c2cc(-c3ccccn3)nc(-c3ccccn3)c2)cc1	active
Cc1cc(/N=N/c2ccc(/N=N/c3c(O)c(S(=O)(=O)O)cc4cc(S(=O)(=O)O)ccc34)cc2C)ccc1/N=N/c1ccc2cc(S(=O)(=O)O)cc(S(=O)(=O)O)c2c1	inactive
CN(/N=N/c1[nH]cnc1C(N)=O)C1CCCCC1	inactive

Ask: Given "O=C(c1ccccc1)c1nc2ccc(Cl)cc2cc1C(Br)Br" , state the outcome it received in this test.
Reply: inactive

Ask: Kindly provide the recorded test outcome for the following compound: COc1ccc(C23c4ccc(OC)cc4CC2(c2ccc([N+](=O)[O-])cc2)Cc2cc(OC)ccc23)cc1 (stereo not given)
Reply: inactive

Ask: Call for entry "Cc1nc(N)c(-c2ccccc2)s1" :
Reply: inactive

Ask: Hi team, can someone confirm the assay call for CC(C)(C)C1CCC(O)(c2ccccc2)CC1 (stereo not given) ?
Reply: inactive

====

- Test system: HOP-92
- run description: NCI tumour cell line growth inhibition, 48 h
Calls of active or inactive are those of the source. Cut-off read from the data, not from the text of the source: active = GI50 up to about 1.1 µM and inactive = higher.
assay readout: GI50

Here are 4 compounds together with their reported answers.
O=C1C(=O)N(c2ccc(Cl)c(Cl)c2)C(=O)C(=O)C1c1nc2ccccc2s1	9.55 µM (inactive)
COc1cccc(-n2c3nc(=O)n(C)c(=O)c-3nc3ccccc32)c1	26 µM (inactive)
O=[N+]([O-])c1ccc(/C=C(/c2ccc([N+](=O)[O-])o2)S(=O)(=O)c2ccccc2)o1	12 µM (inactive)
CC(=O)C(=C(c1ccccc1)c1ccccc1)c1ccccc1	> 100 µM (inactive)

# compound "COC(=O)C(=O)CC(=O)CCn1[nH]c(=O)c(Cl)c(Cl)c1=O" ; its GI50 = > 100 µM (inactive)

Form field GI50, entry "NC(=O)NC(=O)c1cccc(NC(=O)CCl)c1" : 4.34 µM (inactive)

Reported GI50 of "COc1cc(/C=C2\Sc3scc(-c4cccc([N+](=O)[O-])c4)[n+]3C2=O)cc(OC)c1OC" : 11.3 µM (inactive)

The compound Cc1c2cccc(Sc3ccccc3)c2c2c3c(cccc13)[S+](c1ccccc1)C2 (stereo not given) showed GI50 equal to 2.03 µM (inactive)

Per the record, Cc1cc(Cl)ccc1NC(=O)CC1SC(Nc2ccccc2Cl)=NC1=O (stereo not given) has GI50 of 48.9 µM (inactive)

Kindly note the recorded GI50 for COc1ccc(C23c4ccc(OC)cc4CC2(c2ccc([N+](=O)[O-])cc2)Cc2cc(OC)ccc23)cc1 (stereo not given) , which is > 21.9 µM (inactive)

====

- System: SR
- run description: NCI tumour cell line growth inhibition, 48 h
Active and inactive are the calls of the source. No stated cut-off is given here; in the data, active = GI50 up to about 1.1 µM and inactive = higher.
# GI50 annotations

CSC(=S)N(C)C	> 100 µM (inactive)
CCOC(=O)/C=C(\C(=O)OCC)n1ccc(=O)[nH]c1=O	10.4 µM (inactive)
COCN1C(=O)[C@@H]2CCCN2C(=O)c2ccc([N+](=O)[O-])cc21	48.4 µM (inactive)
CC(C)(C)C1CCC(O)(c2ccccc2)CC1 (stereo unspecified)	33.4 µM (inactive)
COc1ccc(N2C(=O)C3c4[nH]c5ccc([N+](=O)[O-])cc5c4C4CCC(C(C)(C)C)CC4C3C2=O)cc1 (stereo unspecified)	3.72 µM (inactive)
COC(CN(C)C(=S)Nc1cccc2ccccc12)OC	> 10 µM (inactive)
CCCCCC1CC=CC(=O)O1 (stereo unspecified)	3.39 µM (inactive)
CC1=CC[C@H](C[C@H](C#CCCCC2OCCO2)O[Si](C(C)C)(C(C)C)C(C)C)C(=O)CC1	> 100 µM (inactive)

The reported value for "C=CC1(c2ccc(OC)cc2)OCCCO1" in terms of GI50 is > 100 µM (inactive)

Query CCOc1ccccc1NC(=O)CC1Sc2ccccc2NC1=O (stereo unspecified) yields GI50 of 21 µM (inactive)

Measured GI50 of C=C[C@@H](OCOCC[Si](C)(C)C)[C@@H](CC)OC(CCCOC(=O)C(C)(C)C)OC (stereo partly specified) : 41.6 µM (inactive)

Values were extracted from ChEMBL document CHEMBL1201862.
